Listed next: entries and their corresponding protein stability index.
B1: PI4K2A (parent)
chain: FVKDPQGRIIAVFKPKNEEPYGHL

variants of: B1; assay: protein stability index of a GFP-peptide fusion (GPS, HEK-293T) (PSI 1-6); higher = more stable; details: c terminus: a fixed tail appended;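 further: lentivirally expressed fusions sorted by FACS into six bins by GFP to DsRed ratio, PSI derived from sequencing read proportions per bin multiplied by bin number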
Kindly provide the number alone.

Exercise: Find the recorded protein stability index belonging to `N17C` and report it.
Solution: 2.31

Exercise: Quick one: protein stability index of `K16R` ?
Solution: 1.77

Exercise: protein stability index lookup needed for `P15S` , thanks.
Solution: 1.96
